Values were extracted from ChEMBL document CHEMBL1153663.

# target-or-system: Calpain-1 catalytic subunit (Homo sapiens)
# Sequence (P07384 whole entry): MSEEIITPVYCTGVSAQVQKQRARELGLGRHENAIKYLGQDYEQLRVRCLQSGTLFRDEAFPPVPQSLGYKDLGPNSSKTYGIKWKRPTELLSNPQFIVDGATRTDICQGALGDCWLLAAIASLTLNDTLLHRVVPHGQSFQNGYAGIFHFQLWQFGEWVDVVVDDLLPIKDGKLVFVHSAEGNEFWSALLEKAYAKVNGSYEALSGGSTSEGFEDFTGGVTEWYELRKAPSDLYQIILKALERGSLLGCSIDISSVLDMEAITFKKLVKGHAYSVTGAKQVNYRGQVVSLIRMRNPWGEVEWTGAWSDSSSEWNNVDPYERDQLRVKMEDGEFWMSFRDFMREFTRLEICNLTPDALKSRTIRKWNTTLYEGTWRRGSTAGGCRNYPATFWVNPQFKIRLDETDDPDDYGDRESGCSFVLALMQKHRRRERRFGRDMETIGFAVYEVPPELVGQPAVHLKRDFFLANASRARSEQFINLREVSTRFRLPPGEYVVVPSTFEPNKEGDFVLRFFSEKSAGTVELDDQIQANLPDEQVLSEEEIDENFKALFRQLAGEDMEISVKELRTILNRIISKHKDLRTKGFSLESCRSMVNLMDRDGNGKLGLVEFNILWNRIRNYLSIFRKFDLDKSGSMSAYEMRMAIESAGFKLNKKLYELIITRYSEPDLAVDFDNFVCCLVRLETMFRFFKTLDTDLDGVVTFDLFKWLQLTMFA
# measurement-description: In vitro inhibitory activity against human erythrocyte Calpain 1
Exercise: for every item that follows, state its recorded IC50.
Numbers only, in nM.

{"molecule": "NC(=O)c1cn(-c2ccc(O)cc2Cl)c2cc(-c3cccnn3)ccc2c1=O", "IC50 [nM]": 2000}
{"molecule": "CC(=O)N[C@@H](CC(C)C)C(=O)N[C@@H](CC(C)C)C(=O)N[C@H](C=O)CCCNC(=N)N [LEUPEPTIN]", "IC50 [nM]": 300}

stdin: In one line, give reported IC50 of the entry O=C(O)c1cn(-c2ccc(O)cc2)c2cc(-c3ccncc3)ccc2c1=O .
stdout: 20000
